These measurements were taken from patent US20250171457A1.

Tested on: Nqo1 (NAD(P)H quinone dehydrogenase 1) mRNA, Nrf2 downstream molecule
Assay: In vivo Nrf2 transcriptional activity measurement (Nqo1 mRNA in organs by qPCR)
Conditions: Mus musculus, ip; C57BL/6J mice, Intraperitoneal, 10 mg/kg, 7 to 8 hours, liver; read-out: Nqo1 mRNA expression level ratio to non-administration group, Liver
fold induction at 10 mg/kg by entry:

{"ENTRY SMILES": "O=C(O)c1cc(F)c(-c2cccc3c2OCN(C(=O)c2c(Cl)cc(N4CC5(CCOCC5)C4)cc2Cl)C3)cc1N1C2CCC1COC2", "fold induction at 10 mg/kg": 6}
{"ENTRY SMILES": "CCN1CCN(c2cc(Cl)c(C(=O)N3COc4c(cccc4-c4cc(N5C6CCC5COC6)c(C(=O)O)cc4F)C3)c(Cl)c2)CC1", "fold induction at 10 mg/kg": 6.7}
{"ENTRY SMILES": "O=C(O)c1cc(F)c(-c2cccc3c2OCN(C(=O)c2c(Cl)cc(N4CC5(C4)OCCCO5)cc2Cl)C3)cc1N1C2CCC1COC2", "fold induction at 10 mg/kg": 6.9}
{"ENTRY SMILES": "C[C@@H]1CN(C)CCN1c1cc(Cl)c(C(=O)N2COc3c(cccc3-c3cc(N4C5CCC4COC5)c(C(=O)O)cc3F)C2)c(Cl)c1", "fold induction at 10 mg/kg": 5.5}
{"ENTRY SMILES": "COC1(OC)CN(c2cc(Cl)c(C(=O)N3COc4c(cccc4-c4cc(N5C6CCC5COC6)c(C(=O)O)cc4F)C3)c(Cl)c2)C1", "fold induction at 10 mg/kg": 6.8}
